- System: human adult PBMCs
- MEASUREMENT_PROTOCOL: TNF production by ELISA after stimulation of human adult PBMCs
- Type: cell-based
- CONDITION_DESCRIPTION: median percentage TNF production as compared to R848; adult PBMCs, 33 μM, 18 hours, N=3-5
READOUT_KIND: TNF % (Median) (%)
Return type: number; implicit unit %.

Exam item: Please look up its TNF % (Median): COc1cnc2nc(-c3ccc(C)c(NC(=O)c4ccccc4Cl)c3)cn2c1 [FRF-02-131]
Marked response: 0.18

Exam item: Also check Cc1ccc(-c2cn3cc(F)cnc3n2)cc1NC(=O)c1ccccc1Cl [FRF-02-115]
Marked response: 2.42

Exam item: Also check COc1ccc(C)c(C(=O)Nc2cc(-c3cn4cc(F)cnc4n3)ccc2C)c1 [FRF-02-187]
Marked response: 31.32

Exam item: Also check Cc1ccc(-c2cn3cccnc3n2)cc1NC(=O)c1ccccc1Cl [Example 37.33]
Marked response: 22.94

Exam item: Also check COc1ccc(C(=O)Nc2cc(-c3cn4cc(F)cnc4n3)ccc2C)c(C)c1 [FRF-02-176]
Marked response: 3.81

###

Task for the reader: assign each of the following compounds its reported TNF (Median).
- System: human adult PBMCs
- MEASUREMENT_PROTOCOL: TNF production by ELISA after stimulation of human adult PBMCs
- Format: cell-based
- CONDITION_DESCRIPTION: adult PBMCs, 33 μM, 18 hours, ELISA; median, N=3-5; unit not given (FIG. 6B/7B legends: TNF concentration in ng/ml)
Form: value (number only, do not type unit).

Exam item: Please look up its TNF (Median): COc1cnc2nc(-c3ccc(C)c(NC(=O)c4ccccc4C)c3)cn2c1
Marked response: 0.008

Exam item: Also check Cc1ccc(-c2cn3cccnc3n2)cc1NC(=O)c1ccccc1Br
Marked response: 3.5625

Exam item: Also check Cc1ccc(-c2cn3cccnc3n2)cc1NC(=O)c1ccccc1C(F)(F)F
Marked response: 3.73

Exam item: Also check COc1ccc(C(=O)Nc2cc(-c3cn4cccnc4n3)ccc2C)c(C)c1
Marked response: 0.008

Exam item: Also check CCC(C(=O)Nc1cc(-c2cn3cc(C)cnc3n2)ccc1C)c1ccccc1 (stereo not drawn)
Marked response: 3.144

Exam item: Also check COc1cnc2nc(-c3ccc(C)c(NC(=O)c4ccccc4Br)c3)cn2c1
Marked response: 0.008

Exam item: Also check COc1cnc2nc(-c3ccc(C)c(NC(=O)c4ccccc4Cl)c3)cn2c1
Marked response: 0.008

Exam item: Also check CCC(C(=O)Nc1cc(-c2cn3cc(C)cnc3n2)ccc1Cl)c1ccccc1 (stereo not drawn)
Marked response: 0.924

Exam item: Also check COc1ccc(C(=O)Nc2cc(-c3cn4cc(F)cnc4n3)ccc2C)c(C)c1
Marked response: 0.087

###

Task for the reader: assign each of the following compounds its reported TNF (Median).
- System: human adult PBMCs
- MEASUREMENT_PROTOCOL: TNF production by ELISA after stimulation of human adult PBMCs
- Format: cell-based
- CONDITION_DESCRIPTION: adult PBMCs, 33 μM, 18 hours, ELISA; median, N=3-5; unit not given (FIG. 6B/7B legends: TNF concentration in ng/ml)
Form: value (number only, do not type unit).

Exam item: So what TNF (Median) did Cc1ccc(-c2cn3cc(F)cnc3n2)cc1NC(=O)c1ccccc1C(F)(F)F get with human adult PBMCs?
Marked response: 1.8795

Exam item: Also check Cc1ccc(-c2cn3cc(F)cnc3n2)cc1NC(=O)c1c(F)cccc1C(F)(F)F
Marked response: 0.063

Exam item: Also check Cc1ccc(-c2cn3cc(F)cnc3n2)cc1NC(=O)c1ccccc1Cl
Marked response: 0.0625

Exam item: Also check COc1ccc(C)c(C(=O)Nc2cc(-c3cn4cc(F)cnc4n3)ccc2C)c1
Marked response: 1.191

Exam item: Also check Cc1ccc(-c2cn3cc(F)cnc3n2)cc1NC(=O)C(C)c1ccccc1 (stereo not drawn)
Marked response: 0.3195

Exam item: Also check CCC(C(=O)Nc1cc(-c2cn3cc(F)cnc3n2)ccc1C)c1ccccc1 (stereo not drawn)
Marked response: 0.219

Exam item: Also check Cc1ccc(-c2cn3cccnc3n2)cc1NC(=O)c1ccccc1Cl
Marked response: 0.288

Exam item: Also check Cc1cnc2nc(-c3ccc(C)c(NC(=O)Cc4ccccc4)c3)cn2c1
Marked response: 0.008

Exam item: Also check Cc1ccc(-c2cn3cccnc3n2)cc1NC(=O)C(CO)c1ccccc1 (stereo not drawn)
Marked response: 2.997
